Form field: EC50 (one value per entry).
System Under Test: UniProt Q8NER1
Sequence (Q8NER1 whole entry): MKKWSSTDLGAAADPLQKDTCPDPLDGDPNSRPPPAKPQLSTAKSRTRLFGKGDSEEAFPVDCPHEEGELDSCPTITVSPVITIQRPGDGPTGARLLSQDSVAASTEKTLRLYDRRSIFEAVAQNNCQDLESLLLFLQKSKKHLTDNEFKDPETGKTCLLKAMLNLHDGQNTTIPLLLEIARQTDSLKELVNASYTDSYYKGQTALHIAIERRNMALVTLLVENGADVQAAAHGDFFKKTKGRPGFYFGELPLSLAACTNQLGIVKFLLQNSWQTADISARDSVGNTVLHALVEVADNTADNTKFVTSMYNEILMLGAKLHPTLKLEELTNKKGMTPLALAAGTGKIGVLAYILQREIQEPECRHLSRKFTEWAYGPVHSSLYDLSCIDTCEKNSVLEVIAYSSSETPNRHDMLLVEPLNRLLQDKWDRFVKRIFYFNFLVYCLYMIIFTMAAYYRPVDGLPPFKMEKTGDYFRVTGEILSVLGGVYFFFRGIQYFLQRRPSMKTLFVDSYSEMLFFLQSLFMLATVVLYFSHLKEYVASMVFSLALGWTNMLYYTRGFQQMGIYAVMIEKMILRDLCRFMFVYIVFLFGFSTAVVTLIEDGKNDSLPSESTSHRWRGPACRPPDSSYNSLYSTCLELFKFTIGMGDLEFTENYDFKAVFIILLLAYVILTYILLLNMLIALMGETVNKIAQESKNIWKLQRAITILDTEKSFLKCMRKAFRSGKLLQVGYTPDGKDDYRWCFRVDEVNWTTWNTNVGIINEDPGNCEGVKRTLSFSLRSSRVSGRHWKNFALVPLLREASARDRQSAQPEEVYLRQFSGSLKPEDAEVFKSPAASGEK
Protocol Description: Agonist activity on human recombinant TRPV1-mediated enhancement of intracellular calcium concentration in HEK293 cells
Assay type: functional, cell-based
Particulars: read-out: EC50
Quantity Measured: EC50

- Compound: "CCCCC/C=C\\C/C=C\\C/C=C\\C/C=C\\CCCC(=O)NOCCO"
  System Under Test: "UniProt Q8NER1"
  Quantity Measured: "EC50"
  Reported Result: "250 nM"
- Compound: "CCCCCCCC/C=C\\CCCCCCCC(=O)NOCCO"
  System Under Test: "UniProt Q8NER1"
  Quantity Measured: "EC50"
  Reported Result: "320 nM"
- Compound: "CCCCC/C=C\\C/C=C\\C/C=C\\C/C=C\\CCCC(=O)N(O)CCO"
  System Under Test: "UniProt Q8NER1"
  Quantity Measured: "EC50"
  Reported Result: "260 nM"
- Compound: "CCCCC/C=C\\C/C=C\\C/C=C\\C/C=C\\CCCC(=O)NCCO [ANANDAMIDE]"
  System Under Test: "UniProt Q8NER1"
  Quantity Measured: "EC50"
  Reported Result: "490 nM"
- Compound: "CCCCCCCCCCCCCCCC(=O)N(O)CCO"
  System Under Test: "UniProt Q8NER1"
  Quantity Measured: "EC50"
  Reported Result: "600 nM"
- Compound: "CCCCCCCC/C=C\\CCCCCCCC(=O)N(O)CCO"
  System Under Test: "UniProt Q8NER1"
  Quantity Measured: "EC50"
  Reported Result: "400 nM"
- Compound: "CCCCCCCC/C=C\\CCCCCCCC(=O)NCCO [OLEOYLETHANOLAMIDE]"
  System Under Test: "UniProt Q8NER1"
  Quantity Measured: "EC50"
  Reported Result: "890 nM"
